# STUDY_TARGET: melanocortin MC-4 receptor (Homo sapiens, UniProt P32245)
# Construct: purchased Receptor Biology Inc
# Sequence (P32245 whole entry): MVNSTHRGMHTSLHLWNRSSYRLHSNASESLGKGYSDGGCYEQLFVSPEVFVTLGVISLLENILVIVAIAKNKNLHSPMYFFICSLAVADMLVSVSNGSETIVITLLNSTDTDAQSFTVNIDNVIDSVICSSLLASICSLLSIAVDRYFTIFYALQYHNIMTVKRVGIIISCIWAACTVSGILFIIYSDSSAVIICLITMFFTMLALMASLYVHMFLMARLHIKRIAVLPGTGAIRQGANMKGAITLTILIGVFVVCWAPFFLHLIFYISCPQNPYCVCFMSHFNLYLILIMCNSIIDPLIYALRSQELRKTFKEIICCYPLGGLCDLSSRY
# MEASUREMENT_PROTOCOL: Melanocortin MC-4 Receptor Binding Assay (SPA)
OBSERVATION_TYPE: IC50 (nM)
Your answer should be a plain number; it is taken to be in nM.

Look up IC50: COc1ccccc1Nc1nc(-c2ccccc2OC)[n+](-c2ccccc2OC)s1 [Compound 76]
332

Next compound up: COc1ccccc1-[n+]1sc(Nc2ccc(C)cc2)nc1-c1ccccc1.[Br-] [Compound 31]
22

Next compound up: COc1ccc(-[n+]2sc(Nc3ccc(Cl)cc3)nc2-c2ccccc2)cc1 [Compound 40]
133

Next compound up: Clc1ccc(-[n+]2sc(Nc3ccccc3)nc2-c2ccccc2)cc1 [Compound 15]
482

Next compound up: COc1ccc(-c2nc(Nc3cccnc3)s[n+]2-c2ccc(OC)cc2)cc1 [Compound 64]
1200

====

# STUDY_TARGET: melanocortin MC-4 receptor (Homo sapiens, UniProt P32245)
# Construct: purchased Receptor Biology Inc
# MEASUREMENT_PROTOCOL: Melanocortin MC-4 Receptor Binding Assay (SPA)
Each record gets a class by IC50: zone 1 (below 200 nM), zone 2 (200 nM to below 400 nM), zone 3 (400 nM or more)

>>> assigned_label("COc1ccc(Nc2nc(-c3ccccc3)[n+](-c3ccccc3)s2)cc1")
"zone 1"

Consider `Clc1ccccc1-[n+]1sc(Nc2ccccc2)nc1-c1ccccc1` . To which IC50 class does it belong?
zone 3

Next molecule up: `Clc1ccccc1Nc1nc(-c2ccccc2)[n+](-c2ccccc2Cl)s1`
zone 3

Next molecule up: `COc1ccccc1-c1nc(Nc2ccc(C)cc2)s[n+]1-c1ccccc1OC`
zone 1

====

IC50 by entry:
# STUDY_TARGET: melanocortin MC-4 receptor (Homo sapiens, UniProt P32245)
# Construct: purchased Receptor Biology Inc
# MEASUREMENT_PROTOCOL: Melanocortin MC-4 Receptor Binding Assay (SPA)
Your answer should be a plain number; it is taken to be in nM.

Some compounds with known IC50 results, for comparison:
>>> endpoint_value("COc1ccc(-[n+]2sc(Nc3ccccc3)nc2-c2ccccc2)cc1")
100
>>> endpoint_value("Cc1ccccc1CNc1nc(-c2ccccc2)[n+](-c2ccccc2)s1")
800

Note: attention shifts to another entry.
Look up IC50: `COc1ccc(Nc2nc(-c3ccccc3)[n+](-c3ccccc3Cl)s2)cc1`
237

====

# STUDY_TARGET: melanocortin MC-4 receptor (Homo sapiens, UniProt P32245)
# Construct: purchased Receptor Biology Inc
# MEASUREMENT_PROTOCOL: Melanocortin MC-4 Receptor Binding Assay (SPA)
IC50 by entry:
Your answer should be a plain number; it is taken to be in nM.

Some compounds with known IC50 results, for comparison:
>>> endpoint_value("Cc1ccccc1-[n+]1sc(Nc2ccccc2)nc1-c1ccccc1")
201
>>> endpoint_value("COc1ccc(Nc2nc(-c3ccccc3)[n+](-c3ccc(Cl)cc3)s2)cc1")
424
>>> endpoint_value("Clc1ccc(CNc2nc(-c3ccccc3)[n+](-c3ccccc3)s2)cc1")
800
>>> endpoint_value("Cc1ccc(Nc2nc(-c3ccccc3)[n+](-c3ccc(Cl)cc3)s2)cc1")
463
>>> endpoint_value("COc1ccccc1Nc1nc(-c2ccc(C)cc2)[n+](-c2ccccc2OC)s1")
130

Look up IC50: `Cc1ccc(-[n+]2sc(Nc3ccccc3Cl)nc2-c2ccccc2)cc1`
218

Next compound up: `COc1ccccc1Nc1nc(-c2ccccc2)[n+](-c2ccc(C)cc2)s1`
159

Next compound up: `Cc1ccc(-[n+]2sc(Nc3ccccc3)nc2-c2ccccc2)cc1`
234

Next compound up: `COc1ccc(-[n+]2sc(Nc3ccccc3C)nc2-c2ccccc2)cc1`
146

Next compound up: `COc1ccc(N(C)c2nc(-c3ccccc3)[n+](-c3ccc(C)cc3)s2)cc1`
30000

Next compound up: `COc1ccccc1-[n+]1sc(Nc2ccccc2C)nc1-c1ccccc1`
48

Next compound up: `COc1ccccc1Nc1nc(-c2ccccc2)[n+](-c2ccccc2C)s1`
130

Next compound up: `COc1ccccc1Nc1nc(-c2ccccc2)[n+](-c2ccc(Cl)cc2)s1`
351

Next compound up: `Cc1ccc(-[n+]2sc(Nc3ccccc3C)nc2-c2ccccc2)cc1`
207

Next compound up: `Cc1ccccc1Nc1nc(-c2ccccc2)[n+](-c2ccccc2)s1`
63

Next compound up: `COc1ccc(-[n+]2sc(Nc3ccccc3Cl)nc2-c2ccccc2)cc1`
483

Next compound up: `Cc1ccccc1-[n+]1sc(Nc2ccc(Cl)cc2)nc1-c1ccccc1`
347

Next compound up: `COc1ccccc1-[n+]1sc(Nc2ccccc2Cl)nc1-c1ccc(C)cc1`
234

Next compound up: `COc1ccc(-[n+]2sc(Nc3ccc(C)cc3)nc2-c2ccccc2)cc1`
159

Next compound up: `COc1ccc(CNc2nc(-c3ccccc3)[n+](-c3ccccc3)s2)cc1`
1000

Next compound up: `Cc1ccc(Nc2nc(-c3ccccc3)[n+](-c3ccccc3C)s2)cc1`
243

Next compound up: `Clc1ccc(-[n+]2sc(Nc3ccccc3Cl)nc2-c2ccccc2)cc1`
392

Next compound up: `COc1ccccc1-[n+]1sc(Nc2ccccc2)nc1-c1ccc(C)cc1`
114

Next compound up: `Cc1ccc(-n2s/c(=N/c3ccccc3)nc2-c2ccccc2)cc1`
826
